Value source: PubChem BioAssay (NCI)

Tested on: SK-MEL-5 melanoma
protocol: NCI-60 one-dose screen, 48 h (100 = growth as untreated, 0 = no growth, -100 = all killed)
measurement parameters: 10 µM unless noted
About 83,000 compounds went through this panel and 20% of them were active in at least one assay; those are over-represented in the sample as a whole.
Parameter growth: see the listing below.
quantity measured: growth (%)

INSERT INTO results (compound, reading) VALUES
  ('CCSc1nnc2n(Cc3ccccc3)c(=O)c3c(C)c(C(N)=O)sc3n12', 95.8),
  ('CCC(=O)Nc1ccccc1C#C/C=C\C#Cc1ccccc1C(F)(F)F', 60.2),
  ('Cc1nn(-c2ccc(Cl)cc2)c2nc3c(nc12)C(=O)C(=O)c1ccccc1-3', 43.8),
  ('O=C(NN(C(=O)c1ccccc1)c1cccs1)c1ccccc1', 101),
  ('CO[C@H]1/C=C/O[C@@]2(C)Oc3c(C)c(O)c4c(O)c(c(/C=N/N5C(C)CN(Cc6ccccc6)CC5C)c(O)c4c3C2=O)NC(=O)/C(C)=C\C=C\[C@H](C)[C@H](O)[C@@H](C)[C@@H](O)[C@@H](C)[C@H](OC(C)=O)[C@@H]1C (stereo not given in full)', 67.4);
